Molecular target: glucocorticoid receptor (GR) (Homo sapiens, UniProt P04150)
Construct: endogenous in cells
Experiment: GR Ligand Binding Assay (3H-dexamethasone displacement, HeLa cell lysate)
Conditions: 3H-DEX trace, DEX as reference, read-out: GR BIND Ki
Experimental: Binding Buffer: TEGM (10 mM Tris-HCl, 1 mM EDTA, 10% glycerol, 1 mM beta-mecaptoethanol, 10 mM Sodium Molybdate, pH 7.2) Dexmethasone-methyl-^3H, (DEX*); (Amersham cat# TRK645) Dexamethasone(DEX) (Sigma, cat# D1756): […] 25 μL, of 3H-DEX (6 nM) trace and 25 μL compound solution are first mixed together, followed by addition of 50 μL receptor solution. […] IC50s are calculated using DEX as a reference.
Categorized via Ki: class 0 = under 5 nM, class 1 = from 5 nM up to 8 nM, class 2 = 8 nM and over

compound	system-tested	category
C[C@]12Cc3cnn(-c4ccccc4)c3C=C1CC[C@@]2(CO)CC(O)c1ccccn1 (single isomer, unassigned) [Example 23a]	glucocorticoid receptor (GR) (Homo sapiens, UniProt P04150)	class 1

Record C[C@]12Cc3cnn(-c4ccc(F)cc4)c3C=C1CC[C@@]2(CO)CC(O)C1CCCCC1 (single isomer, unassigned) [Example 18a] — which class?
class 0

Now this one: C[C@]12Cc3cnn(-c4ccc(F)cc4)c3C=C1CC[C@@]2(CO)CC(O)C(F)(F)F (single isomer, unassigned) [Example 28a]
class 2

Now this one: COc1cccnc1C(O)C[C@]1(CO)CCC2=Cc3c(cnn3-c3cccc(F)c3)C[C@@]21C (single isomer, unassigned) [Example 26a]
class 2

Now this one: C[C@]12Cc3cnn(-c4ccc(F)cc4)c3C=C1CC[C@@]2(CO)CC(O)c1cccc(Cl)c1 (stereo partly shown) [Example 8]
class 0

Now this one: C[C@]12Cc3cnn(-c4cccc(F)c4)c3C=C1CC[C@@]2(CO)CC(O)c1cccnc1 (single isomer, unassigned) [Example 27b]
class 2

Now this one: CC(O)(C[C@]1(CO)CCC2=Cc3c(cnn3-c3ccc(F)cc3)C[C@@]21C)c1cccnc1 (single isomer, unassigned) [Example 25a]
class 2

Now this one: C[C@]12Cc3cnn(-c4ccccc4)c3C=C1CC[C@@]2(CO)CC(O)c1ccccn1 (single isomer, unassigned) [Example 23b]
class 0

Now this one: COc1cccnc1C(O)C[C@]1(CO)CCC2=Cc3c(cnn3-c3ccc(F)cc3)C[C@@]21C (single isomer, unassigned) [Example 21a]
class 1

Now this one: CC(O)(C[C@]1(CO)CCC2=Cc3c(cnn3-c3ccc(F)cc3)C[C@@]21C)c1cccnc1 (single isomer, unassigned) [Example 25b]
class 2

Now this one: C[C@]12Cc3cnn(-c4ccc(F)cc4)c3C=C1CC[C@@]2(CO)CC(O)c1ccccn1 (single isomer, unassigned) [Example 1a]
class 1

Now this one: C[C@]12Cc3cnn(-c4ccc(F)cc4)c3C=C1CC[C@@]2(CO)CC(O)c1cccc(C(F)(F)F)c1 (single isomer, unassigned) [Example 7b]
class 0

----------
target: human GR (Homo sapiens); construct: naturally expresses the human GR; endogenous in cells; experiment: Transrepression Assay (GITAR), TNFα-β-lactamase reporter in U937 cells; assay type: cell-based; details: inflection point (IP), TNFα promoter β-lactamase reporter, PMA/LPS
pEC50: −log10 of the molar value.
Threshold check on pEC50: at or above 7 gives True, strictly below gives False.

Please review the following examples before continuing.
compound	system-tested	category
Cc1ccc(C(O)C[C@]2(CO)CCC3=Cc4c(cnn4-c4ccc(F)cc4)C[C@@]32C)cc1 (single isomer, unassigned) [Example 2b]	human GR (Homo sapiens)	False
CC(O)(C[C@]1(CO)CCC2=Cc3c(cnn3-c3ccc(F)cc3)C[C@@]21C)c1cccnc1 (single isomer, unassigned) [Example 25b]	human GR (Homo sapiens)	False
Cc1cccc(C(O)C[C@]2(CO)CCC3=Cc4c(cnn4-c4ccc(F)cc4)C[C@@]32C)c1 (single isomer, unassigned) [Example 5b]	human GR (Homo sapiens)	True
C[C@]12Cc3cnn(-c4ccc(F)cc4)c3C=C1CC[C@@]2(CO)CC(O)c1ccccc1Cl (single isomer, unassigned) [Example 3b]	human GR (Homo sapiens)	True
COc1cccnc1C(O)C[C@]1(CO)CCC2=Cc3c(cnn3-c3cccc(F)c3)C[C@@]21C (single isomer, unassigned) [Example 26b]	human GR (Homo sapiens)	False
CC(C)C(O)C[C@]1(CO)CCC2=Cc3c(cnn3-c3ccc(F)cc3)C[C@@]21C (single isomer, unassigned) [Example 14a]	human GR (Homo sapiens)	False
C[C@]12Cc3cnn(-c4ccc(F)cc4)c3C=C1CC[C@@]2(CO)CC(O)C1CC1 (single isomer, unassigned) [Example 20b]	human GR (Homo sapiens)	False
C[C@]12Cc3cnn(-c4ccc(F)cc4)c3C=C1CC[C@@]2(CO)CC(O)c1ccccc1 (single isomer, unassigned) [Example 13a]	human GR (Homo sapiens)	True

Has C[C@]12Cc3cnn(-c4ccc(F)cc4)c3C=C1CC[C@@]2(CO)CC(O)c1cccnc1 (single isomer, unassigned) [Example 15a] a recorded pEC50 greater than or equal to 7?
True

Now this one: C[C@]12Cc3cnn(-c4ccc(F)cc4)c3C=C1CC[C@@]2(CO)CC(O)C1CCCCC1 (single isomer, unassigned) [Example 18b]
True

----------
molecular target: human GR (Homo sapiens, UniProt P04150); construct: naturally expresses the human GR; endogenous in cells; assay: Transrepression Assay (GITAR), TNFα-β-lactamase reporter in U937 cells; assay type: cell-based; settings: U-937, activity repressed by 100 nM dexamethasone set as 100%
# Emax per record follows
Quick reminder: number only, in %, skip the unit.

Recorded results for 6 compounds are shown here.
compound	unit-tag	Emax
C[C@]12Cc3cnn(-c4ccc(F)cc4)c3C=C1CC[C@@]2(CO)CC1OC(=O)c2ccccc21 (stereo partly shown) [Example 11]	%	84.6
C[C@]12Cc3cnn(-c4ccc(F)cc4)c3C=C1CC[C@@]2(CO)CC(O)c1ccccn1 (single isomer, unassigned)	%	93
Cc1ccc(C(O)C[C@]2(CO)CCC3=Cc4c(cnn4-c4ccc(F)cc4)C[C@@]32C)cc1 (single isomer, unassigned)	%	94.4
C[C@]12Cc3cnn(-c4ccc(F)cc4)c3C=C1CC[C@@]2(CO)CC(O)C1CCCCC1 (single isomer, unassigned) [Example 18a]	%	93.1
C[C@]12Cc3cnn(-c4ccc(F)cc4)c3C=C1CC[C@@]2(CO)CC(O)c1cccc(C(F)(F)F)c1 (single isomer, unassigned)	%	95.3
C[C@]12Cc3cnn(-c4ccc(F)cc4)c3C=C1CC[C@@]2(CO)CC(O)c1ccccc1 (single isomer, unassigned) [Example 13a]	%	91

Using the record for C[C@]12Cc3cnn(-c4ccc(F)cc4)c3C=C1CC[C@@]2(CO)CC(O)c1ccc(F)cn1 (single isomer, unassigned) [Example 22a] , report its Emax.
90.9

Now this one: C[C@]12Cc3cnn(-c4ccccc4)c3C=C1CC[C@@]2(CO)CC(O)c1ccccn1 (single isomer, unassigned) [Example 23a]
82.6

Now this one: Cc1ccc(C(O)C[C@]2(CO)CCC3=Cc4c(cnn4-c4ccc(F)cc4)C[C@@]32C)nc1 (stereo partly shown)
85.4

Now this one: C[C@]12Cc3cnn(-c4ccc(F)cc4)c3C=C1CC[C@@]2(CO)CC(O)c1cc(F)cc(F)c1 (stereo partly shown)
102

Now this one: COc1ccc(C(O)C[C@]2(CO)CCC3=Cc4c(cnn4-c4ccc(F)cc4)C[C@@]32C)nc1 (single isomer, unassigned) [Example 24a]
63

Now this one: COc1cccnc1C(O)C[C@]1(CO)CCC2=Cc3c(cnn3-c3ccc(F)cc3)C[C@@]21C (single isomer, unassigned) [Example 21a]
85.4

Now this one: C[C@]12Cc3cnn(-c4ccc(F)cc4)c3C=C1CC[C@@]2(CO)CC(O)c1ccccc1Cl (single isomer, unassigned)
93.3

Now this one: C[C@]12Cc3cnn(-c4ccc(F)cc4)c3C=C1CC[C@@]2(CO)CC(O)c1ccccc1F (stereo partly shown)
104

----------
# EC50 per record follows
Molecular target: human GR (Homo sapiens, UniProt P04150)
Construct: naturally expresses the human GR; endogenous in cells
Sequence (P04150 1-777): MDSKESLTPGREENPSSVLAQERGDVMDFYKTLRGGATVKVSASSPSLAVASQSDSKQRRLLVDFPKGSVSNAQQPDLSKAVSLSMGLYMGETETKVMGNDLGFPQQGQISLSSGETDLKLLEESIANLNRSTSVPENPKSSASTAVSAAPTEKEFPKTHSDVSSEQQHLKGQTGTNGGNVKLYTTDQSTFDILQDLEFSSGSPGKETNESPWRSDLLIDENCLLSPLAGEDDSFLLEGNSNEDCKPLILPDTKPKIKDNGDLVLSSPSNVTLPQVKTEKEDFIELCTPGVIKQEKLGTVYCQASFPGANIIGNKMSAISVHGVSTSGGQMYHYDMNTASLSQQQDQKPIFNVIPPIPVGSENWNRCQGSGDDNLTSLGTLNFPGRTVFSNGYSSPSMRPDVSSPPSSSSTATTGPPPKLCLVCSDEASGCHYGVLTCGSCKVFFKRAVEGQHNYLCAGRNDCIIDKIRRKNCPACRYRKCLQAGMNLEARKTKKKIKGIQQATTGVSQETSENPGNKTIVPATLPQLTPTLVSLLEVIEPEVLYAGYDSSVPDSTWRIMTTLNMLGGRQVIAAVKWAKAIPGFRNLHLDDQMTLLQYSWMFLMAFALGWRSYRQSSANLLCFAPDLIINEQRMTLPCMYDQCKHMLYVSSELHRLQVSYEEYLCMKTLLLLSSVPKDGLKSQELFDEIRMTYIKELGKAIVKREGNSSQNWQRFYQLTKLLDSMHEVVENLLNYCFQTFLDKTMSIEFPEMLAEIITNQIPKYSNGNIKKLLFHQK
Assay: Trans-Activation Modulation of Glucocorticoid Receptor Assay (GRAMMER), MMTV-LUC reporter in A549 cells
Assay type: cell-based
Settings: inflection point (IP), MMTV-LUC reporter, read-out: Transactivation A549 Cells GRAMMER IP
I'd appreciate it if you included the unit after the number.

compound	system-tested	EC50
C[C@]12Cc3cnn(-c4ccc(F)cc4)c3C=C1CC[C@@]2(CO)CC(O)c1ccccn1 (single isomer, unassigned) [Example 1b]	human GR (Homo sapiens, UniProt P04150)	26.4 nM

Now let's try a different one.
Using the record for C[C@]12Cc3cnn(-c4cccc(F)c4)c3C=C1CC[C@@]2(CO)CC(O)c1cccnc1 (single isomer, unassigned) [Example 27b] , report its EC50.
634 nM
